Target: wild type and amino acid substituted PPO enzyme (PPO2) of SEQ ID NO: 2 (AMARE) (Amaranthus tuberculatus, UniProt Q0NZW9, L397Q/F420M, form not given)
Format: biochemical, Amaranthus tuberculatum
assayEndpoint: pIC50
// pIC50 is dimensionless: -log10 of concentration (M)

Worked set:
COC(Oc1ccccc1Oc1cc(-n2c(=O)cc(C(F)(F)F)n(C)c2=O)c(F)cc1Cl)C(=O)OC1CCCCC1 (stereo not drawn) :: 6.19
CCOCCOC(=O)C(OC)Oc1ccccc1Oc1cc(-n2c(=O)cc(C(F)(F)F)n(C)c2=O)c(F)cc1Cl (stereo not drawn) :: 6.03
COC(Oc1ccccc1Oc1cc(-n2c(=O)cc(C(F)(F)F)n(C)c2=O)c(F)cc1Cl)C(=O)OCc1ccncc1 (stereo not drawn) :: 6.02
COC(Oc1ccccc1Oc1cc(-n2c(=O)cc(C(F)(F)F)n(C)c2=O)c(F)cc1Cl)C(=O)OCC1(C)CC1 (stereo not drawn) :: 6.34
COC(Oc1ccccc1Oc1cc(-n2c(=O)cc(C(F)(F)F)n(C)c2=O)c(F)cc1Cl)C(=O)OCC(F)F (stereo not drawn) :: 6.50

Next compound, pIC50 to be filled in.
*Q* So what does the record say about pIC50 for COC(=O)C(OC)Oc1ccccc1Oc1cc(-n2c(=O)cc(C(F)(F)F)n(C)c2=O)c(F)cc1Cl (stereo not drawn) ?
*A* 6.44

* * *

Target: wild type and amino acid substituted PPO enzyme (PPO2) of SEQ ID NO: 2 (AMARE) (Amaranthus tuberculatus, UniProt Q0NZW9, R128Y/F420M, form not given)
Sequence (Q0NZW9 1-534 R128Y/F420M): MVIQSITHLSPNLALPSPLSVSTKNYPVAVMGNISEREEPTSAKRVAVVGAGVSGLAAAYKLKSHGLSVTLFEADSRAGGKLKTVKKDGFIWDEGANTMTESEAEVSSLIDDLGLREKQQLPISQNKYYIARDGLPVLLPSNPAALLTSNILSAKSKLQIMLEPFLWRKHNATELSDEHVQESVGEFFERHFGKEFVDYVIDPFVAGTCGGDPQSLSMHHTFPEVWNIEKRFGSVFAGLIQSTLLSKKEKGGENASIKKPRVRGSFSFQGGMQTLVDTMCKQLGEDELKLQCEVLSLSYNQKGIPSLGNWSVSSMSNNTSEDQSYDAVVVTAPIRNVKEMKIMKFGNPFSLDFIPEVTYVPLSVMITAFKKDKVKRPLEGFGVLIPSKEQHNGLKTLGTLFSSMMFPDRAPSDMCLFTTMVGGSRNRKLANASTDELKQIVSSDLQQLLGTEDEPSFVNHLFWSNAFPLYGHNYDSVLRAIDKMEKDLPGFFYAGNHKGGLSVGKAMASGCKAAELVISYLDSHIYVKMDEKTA
Assay type: biochemical, Amaranthus tuberculatum
Settings: read-out: IC50
assayEndpoint: pIC50
// pIC50 is dimensionless: -log10 of concentration (M)

*Q* So what does the record say about pIC50 for `CCOC(=O)/C(Cl)=C/c1cc(N2C(=O)C3=C(CCCC3)C2=O)ccc1Cl` ?
*A* 4.97

* * *

Target: wild type and amino acid substituted PPO enzyme (PPO2) of SEQ ID NO: 2 (AMARE) (Amaranthus tuberculatus, UniProt Q0NZW9, R128A/L397D, form not given)
Sequence (Q0NZW9 1-534 R128A/L397D): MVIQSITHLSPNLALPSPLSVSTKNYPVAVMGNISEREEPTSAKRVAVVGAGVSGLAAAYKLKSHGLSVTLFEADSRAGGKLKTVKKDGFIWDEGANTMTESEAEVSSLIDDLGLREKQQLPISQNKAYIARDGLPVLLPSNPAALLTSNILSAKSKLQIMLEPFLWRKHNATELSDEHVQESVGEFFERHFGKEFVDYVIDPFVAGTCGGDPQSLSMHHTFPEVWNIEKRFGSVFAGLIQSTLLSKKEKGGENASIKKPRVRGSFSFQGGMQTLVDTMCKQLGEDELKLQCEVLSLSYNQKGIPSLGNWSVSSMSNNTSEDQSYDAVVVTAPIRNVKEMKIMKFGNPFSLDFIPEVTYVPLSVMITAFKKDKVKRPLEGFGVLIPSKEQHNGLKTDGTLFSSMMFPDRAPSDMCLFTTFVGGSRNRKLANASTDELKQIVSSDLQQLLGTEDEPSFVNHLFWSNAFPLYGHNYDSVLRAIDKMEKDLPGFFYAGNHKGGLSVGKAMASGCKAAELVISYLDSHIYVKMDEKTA
Type: biochemical, Amaranthus tuberculatum
assayEndpoint: IC50 (nM)
Answer in nM, number only, no unit symbol.

*Q* So what does the record say about IC50 for C#CCN1C(=O)C(F)(F)Oc2cc(F)c(-n3c(=O)n(C)c(=S)n(C)c3=O)cc21 [1,5-dimethyl-6-thioxo-3-(2,2,7-trifluoro-3-oxo-4-(prop-2-yny] [reference compound] ?
*A* 5.9

* * *

Molecular target: wild type and amino acid substituted PPO enzyme (PPO2) of SEQ ID NO: 2 (AMARE) (Amaranthus tuberculatus, UniProt Q0NZW9, R128A/F420L, form not given)
Sequence (Q0NZW9 1-534 R128A/F420L): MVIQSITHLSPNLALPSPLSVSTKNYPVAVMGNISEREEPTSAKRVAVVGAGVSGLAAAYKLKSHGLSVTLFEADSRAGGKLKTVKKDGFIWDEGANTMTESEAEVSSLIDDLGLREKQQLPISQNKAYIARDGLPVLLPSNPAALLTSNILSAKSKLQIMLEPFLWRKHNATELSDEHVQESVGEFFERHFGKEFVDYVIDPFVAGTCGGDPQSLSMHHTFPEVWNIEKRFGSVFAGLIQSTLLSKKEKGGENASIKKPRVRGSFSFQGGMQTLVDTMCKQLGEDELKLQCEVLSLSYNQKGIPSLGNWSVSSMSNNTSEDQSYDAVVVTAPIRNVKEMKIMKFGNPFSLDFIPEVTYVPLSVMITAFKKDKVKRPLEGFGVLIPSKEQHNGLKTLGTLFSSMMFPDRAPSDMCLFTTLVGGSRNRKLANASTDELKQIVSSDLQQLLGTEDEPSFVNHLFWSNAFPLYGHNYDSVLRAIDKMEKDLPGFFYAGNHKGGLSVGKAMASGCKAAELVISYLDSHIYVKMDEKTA
Type: biochemical, Amaranthus tuberculatum
Consider the following compounds and their measured pIC50 readings.
// pIC50 is dimensionless: -log10 of concentration (M)

CCOC(=O)C(C)OC(=O)c1cc(Oc2ccc(C(F)(F)F)cc2Cl)ccc1[N+](=O)[O-] (centres unmarked) [LACTOFEN] :: 7.16
CS(=O)(=O)NC(=O)c1cc(Oc2ccc(C(F)(F)F)cc2Cl)ccc1[N+](=O)[O-] [FOMESAFEN] :: 5.00
C=CCOC(=O)C(C)(C)OC(=O)c1cc(-n2c(=O)cc(C(F)(F)F)n(C)c2=O)ccc1Cl [BUTAFENACIL] :: 7.04
CCOC(=O)COc1ncccc1Oc1cc(-n2c(=O)cc(C(F)(F)F)n(C)c2=O)c(F)cc1Cl [A.13, reference compound] :: 6.56
CCOc1cc(Oc2ccc(C(F)(F)F)cc2Cl)ccc1[N+](=O)[O-] [OXIFLUORFEN] :: 6.25

Next compound, pIC50 to be filled in.
*Q* So what does the record say about pIC50 for CCOC(=O)C(Cl)Cc1cc(-n2nc(C)n(C(F)F)c2=O)c(F)cc1Cl (centres unmarked) [CARFENTRAZONE-ETHYL] ?
*A* 6.37

* * *

Molecular target: wild type and amino acid substituted PPO enzyme (PPO2) of SEQ ID NO: 2 (AMARE) (Amaranthus tuberculatus, UniProt Q0NZW9, R128L, form not given)
Format: biochemical, Amaranthus tuberculatum
assayEndpoint: IC50 (nM)
Answer in nM, number only, no unit symbol.

*Q* So what does the record say about IC50 for CC(C)N(C)S(=O)(=O)NC(=O)c1cc(-n2c(=O)cc(C(F)(F)F)n(C)c2=O)c(F)cc1Cl [Saflufenacil, saflufenacil] ?
*A* 222

* * *

Target: wild type and amino acid substituted PPO enzyme (PPO2) of SEQ ID NO: 2 (AMARE) (Amaranthus tuberculatus, UniProt Q0NZW9, F204I/T208S, form not given)
Sequence (Q0NZW9 1-534 F204I/T208S): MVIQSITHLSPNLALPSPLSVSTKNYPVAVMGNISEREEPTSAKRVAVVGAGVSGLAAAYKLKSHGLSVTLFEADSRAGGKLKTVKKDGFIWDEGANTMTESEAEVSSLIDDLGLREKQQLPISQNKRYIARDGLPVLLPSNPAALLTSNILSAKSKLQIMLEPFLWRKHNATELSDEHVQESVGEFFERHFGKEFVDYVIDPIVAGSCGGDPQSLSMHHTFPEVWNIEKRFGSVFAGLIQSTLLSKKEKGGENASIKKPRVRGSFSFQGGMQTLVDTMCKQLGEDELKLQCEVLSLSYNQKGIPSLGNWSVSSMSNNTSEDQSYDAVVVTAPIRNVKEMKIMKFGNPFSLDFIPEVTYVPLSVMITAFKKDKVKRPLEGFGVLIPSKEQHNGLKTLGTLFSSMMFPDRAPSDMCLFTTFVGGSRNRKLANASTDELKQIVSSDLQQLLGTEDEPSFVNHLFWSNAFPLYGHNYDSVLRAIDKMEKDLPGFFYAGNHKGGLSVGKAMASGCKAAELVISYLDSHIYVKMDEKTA
Consider the following molecules and their measured pIC50 readings.
// pIC50 is dimensionless: -log10 of concentration (M)

CC(C)N(C)S(=O)(=O)NC(=O)c1cc(-n2c(=O)cc(C(F)(F)F)n(C)c2=O)c(F)cc1Cl :: 10.23

Next molecule, pIC50 to be filled in.
*Q* So what does the record say about pIC50 for C#CCN1C(=O)C(F)(F)Oc2cc(F)c(-n3c(=O)n(C)c(=S)n(C)c3=O)cc21 [1,5-dimethyl-6-thioxo-3-(2,2,7-trifluoro-3-oxo-4-(prop-2-yny] [reference compound] ?
*A* 9.89
